These data points were gathered from patent US5599793A.

# target_desc: Plasmin (Homo sapiens, UniProt P00747)
# Construct: Human plasmin is purchased; purchased Boehringer Mannheim, Indianapolis, Ind
# Sequence (P00747 581-810 limits assumed): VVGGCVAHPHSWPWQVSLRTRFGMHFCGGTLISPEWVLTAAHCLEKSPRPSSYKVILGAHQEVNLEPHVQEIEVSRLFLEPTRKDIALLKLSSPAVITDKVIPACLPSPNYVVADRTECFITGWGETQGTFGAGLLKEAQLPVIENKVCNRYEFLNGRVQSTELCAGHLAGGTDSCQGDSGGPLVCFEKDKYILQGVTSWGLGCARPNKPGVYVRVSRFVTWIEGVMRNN
# Sequence (P00747 97-580 partner limits assumed): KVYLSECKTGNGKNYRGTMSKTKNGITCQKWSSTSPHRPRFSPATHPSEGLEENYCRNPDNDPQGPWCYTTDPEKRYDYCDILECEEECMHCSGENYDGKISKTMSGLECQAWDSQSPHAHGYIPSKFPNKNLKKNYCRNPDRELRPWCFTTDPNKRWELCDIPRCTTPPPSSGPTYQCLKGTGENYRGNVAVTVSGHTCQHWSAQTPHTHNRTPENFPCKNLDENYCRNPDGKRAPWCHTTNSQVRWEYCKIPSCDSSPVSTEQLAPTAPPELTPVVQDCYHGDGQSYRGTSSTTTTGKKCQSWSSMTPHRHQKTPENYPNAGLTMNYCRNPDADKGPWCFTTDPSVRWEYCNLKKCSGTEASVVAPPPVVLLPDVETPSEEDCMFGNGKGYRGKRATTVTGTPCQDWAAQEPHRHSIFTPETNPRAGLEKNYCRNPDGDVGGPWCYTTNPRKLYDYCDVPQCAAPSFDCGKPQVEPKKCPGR
# experiment_summary: Serine protease selectivity, chromogenic substrate (Kass), plasmin
# Format: biochemical
# conditions: substrate H-D-Val-Leu-Lys-p-nitroanilide
observable: Enzyme Kass, Plasmin (L/mol × 10^6)
Supply the numeric figure in L/mol × 10^6, leaving out any unit text.

molecule	output_unit	Enzyme Kass, Plasmin
Cl.Cl.N=C(N)NCCC[C@@H](C=O)NC(=O)[C@@H]1C[C@H](Oc2ccc(C(=O)O)cc2)CN1C(=O)[C@H]1CCCCN1 (relative stereo) [Example 18]	L/mol × 10^6	0.37
CC(C)CC[C@H]1C[C@@H](C(=O)N[C@H](C=O)CCCNC(=N)N)N(C(=O)[C@H]2CCCCN2)C1.Cl.Cl (relative stereo) [Example 4]	L/mol × 10^6	2.0
Cl.Cl.NC(N)=NCCCC(C=O)NC(=O)C1CC(Oc2ccccc2)CN1C(=O)C1NCCC2CCCCC21 [Example 14, L-1-Piq-Pro(4-cis-phenoxy)-ArgH.2 HCl]	L/mol × 10^6	0.34
CCS(=O)(=O)N[C@@H](C(=O)N1C[C@@H](Oc2ccccc2)C[C@H]1C(=O)N[C@H](C=O)CCCNC(=N)N)c1ccccc1.Cl (relative stereo) [Example 17, EtSO2 -D-Phg-Pro(4-cis-phenoxy)-ArgH.HCl]	L/mol × 10^6	26

Kindly review the next molecule as well.
Give a short answer stating reported Enzyme Kass, Plasmin for CC(=O)Nc1ccc(O[C@H]2C[C@@H](C(=O)N[C@H](C=O)CCCNC(=N)N)N(C(=O)[C@H]3CCCCN3)C2)cc1.Cl.Cl (relative stereo) [Example 10] .
3.4
